test: Solubility experiment in water; format: physicochemical; conditions: 37 °C, thermodynamic from solid, 37° C., 24 hrs, solid loading 2 mg/mL, read-out: S: solubility
endpoint: solubility at 24 h (µg/mL)
One number for each entry, in µg/mL.

Request: Which value of solubility at 24 h has been reported for C=CC(=O)N1CCC([C@@H]2CCNc3c(C(N)=O)c(-c4ccc(Oc5ccccc5)cc4)nn32)CC1 [Form 1] in the records?
Response: 82

----------
experiment: Solubility experiment in water; type: physicochemical; settings: 37 °C, thermodynamic from solid, 37° C., 1 hr, solid loading 2 mg/mL, read-out: S: solubility
endpoint: solubility at 1 h

Request: Which value of solubility at 1 h has been reported for C=CC(=O)N1CCC([C@@H]2CCNc3c(C(N)=O)c(-c4ccc(Oc5ccccc5)cc4)nn32)CC1 [Form 1] in the records?
Response: 90 µg/mL

----------
test: Solubility experiment in water; format: physicochemical; settings: 37 °C, thermodynamic from solid, 37° C., 4 hrs, solid loading 2 mg/mL, read-out: S: solubility
endpoint: solubility at 4 h

Request: Which value of solubility at 4 h has been reported for C=CC(=O)N1CCC([C@@H]2CCNc3c(C(N)=O)c(-c4ccc(Oc5ccccc5)cc4)nn32)CC1 [Form 1] in the records?
Response: 73 µg/mL

----------
experiment: Solubility experiment in water; assay type: physicochemical; settings: 25 °C, thermodynamic from solid, 25° C., 1 hr, solid loading 2 mg/mL, read-out: S: solubility
endpoint: solubility at 1 h
Give me the value, and tack the unit on after it.

Request: Which value of solubility at 1 h has been reported for C=CC(=O)N1CCC([C@@H]2CCNc3c(C(N)=O)c(-c4ccc(Oc5ccccc5)cc4)nn32)CC1 [Form 1] in the records?
Response: 75 µg/mL
